Consider the following binders; for each one, report its pKd.
- target system: T1, Proleukin® (aldesleukin) (human, UniProt P60568 21-153, limits assumed)
- T1 construct: Variant of human wt IL-2 with C145S (C125S on mature IL-2); also called IL-2 (Proleukin®); human IL-2 (Proleukin)
- T1 sequence (P60568 other isoform, or with tags, fused parts or gaps limits assumed): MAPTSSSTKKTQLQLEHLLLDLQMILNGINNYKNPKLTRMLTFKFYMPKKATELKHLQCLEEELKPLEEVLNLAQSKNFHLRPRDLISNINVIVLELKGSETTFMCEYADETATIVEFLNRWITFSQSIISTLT
- assay remarks: SET assay (solution equilibration titration, MSD)
Reminder that pKd is minus the log10 of a molar concentration.

Give the value of pKd reported for the following: 104343_VH1D98E_VK2 (antibody, V domains shown, Human IgG1 Fc domain with the N297A point mutation) VH: QVQLVQSGAEVKKPGSSVKVSCKASGYAFTNYLIEWVRQAPGQGLEWMGVINPGSGGTNYNEKFKGRVTITADKSTSTAYMELSSLRSEDTAVYYCARWRGEGYYAYFDVWGQGTTVTVSS VL: DIVLTQSPLSLPVTLGQPASISCKASQSVDYDGDSYMNWYQQRPGQSPRLLIYAASNLESGVPDRFSGSGSGTDFTLKISRVEAEDVGVYYCQQSNEDPYTFGGGTKVEIK
10.01

Complete the entry with pKd for 104348_VH5D98E_VK1D28Q (antibody, human IgG1, kappa, N297A, V domains shown, also called Antibody No: 1; parental antibody) VH: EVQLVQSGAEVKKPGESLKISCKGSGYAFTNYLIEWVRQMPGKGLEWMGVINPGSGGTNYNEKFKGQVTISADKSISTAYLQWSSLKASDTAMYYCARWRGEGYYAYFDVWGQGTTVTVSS VL: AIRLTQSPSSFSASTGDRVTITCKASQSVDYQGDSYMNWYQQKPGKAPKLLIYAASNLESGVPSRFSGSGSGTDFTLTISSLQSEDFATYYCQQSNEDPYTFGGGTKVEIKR
9.57

Could you please provide reported pKd for 104348 (antibody, human IgG1, kappa, N297A, V domains shown, VH5/VK1, human IgG1 N297A) VH: EVQLVQSGAEVKKPGESLKISCKGSGYAFTNYLIEWVRQMPGKGLEWMGVINPGSGGTNYNEKFKGQVTISADKSISTAYLQWSSLKASDTAMYYCARWRGDGYYAYFDVWGQGTTVTVSS VL: AIRLTQSPSSFSASTGDRVTITCKASQSVDYDGDSYMNWYQQKPGKAPKLLIYAASNLESGVPSRFSGSGSGTDFTLTISSLQSEDFATYYCQQSNEDPYTFGGGTKVEIKR ? Thanks!
9.98

Entry 104349_VH5D98E_VK2D28Q (antibody, V domains shown, Human IgG1 Fc domain with the N297A point mutation) VH: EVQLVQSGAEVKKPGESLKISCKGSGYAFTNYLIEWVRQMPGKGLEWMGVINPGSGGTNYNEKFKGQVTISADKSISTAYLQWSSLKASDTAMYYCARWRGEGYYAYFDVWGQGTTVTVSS VL: DIVLTQSPLSLPVTLGQPASISCKASQSVDYQGDSYMNWYQQRPGQSPRLLIYAASNLESGVPDRFSGSGSGTDFTLKISRVEAEDVGVYYCQQSNEDPYTFGGGTKVEIK needs its pKd filled in; supply it.
9.73

Answer with the recorded pKd of 104349_VH5D98E_VK2 (antibody, V domains shown, Human IgG1 Fc domain with the N297A point mutation) VH: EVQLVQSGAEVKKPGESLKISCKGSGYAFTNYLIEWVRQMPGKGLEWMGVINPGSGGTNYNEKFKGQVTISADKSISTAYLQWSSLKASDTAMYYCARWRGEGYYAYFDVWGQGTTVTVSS VL: DIVLTQSPLSLPVTLGQPASISCKASQSVDYDGDSYMNWYQQRPGQSPRLLIYAASNLESGVPDRFSGSGSGTDFTLKISRVEAEDVGVYYCQQSNEDPYTFGGGTKVEIK only.
9.75
